# Protocol description: gradient 5% acetonitrile 3 min, to 50% in 2 min, to 85% in 15 min, held 3 min, 100 µL/min
# Stated conditions: column: Zorbax Extend-C18 2.1 x 50 mm; eluents: water / acetonitrile, 0.1% formic acid
Assay readout: RP-LC retention time (s)
Just the number please, in s, no unit attached.

What does the record list as RP-LC retention time for CSc1nc(N2CCCC2)c2cnn(CCNC(=O)c3cc(-c4ccco4)on3)c2n1 ?
849

What does the record list as RP-LC retention time for Cc1cc2n(n1)CCCN2C(=O)CCC(=O)N1CCN(c2ccccn2)CC1 ?
555

What does the record list as RP-LC retention time for CCC1CN(C(=O)Nc2ccc3c(c2)OCCO3)c2ccccc2O1 (stereo not given) ?
966

What does the record list as RP-LC retention time for CCc1nc(OCC(=O)Nc2cc(Cl)c(OC)cc2OC)c2ccccc2n1 ?
848

What does the record list as RP-LC retention time for CN(C)c1ccc(-c2nc3ccc(Cl)cn3c2Nc2ccc3c(c2)OCO3)cc1 ?
764

What does the record list as RP-LC retention time for O=c1c2nnc3ccnn3c2ccn1CCc1c[nH]c2ccc(F)cc12 ?
709

What does the record list as RP-LC retention time for CCc1nn(C)c(=O)c2cc(S(=O)(=O)N3CCC(Cc4ccccc4)CC3)cn12 ?
1050

What does the record list as RP-LC retention time for Cc1cccc(Cn2c(CN3CCC(C(=O)NC(C)C)CC3)cc3ccccc32)c1 ?
737

What does the record list as RP-LC retention time for Cc1cc2n(n1)CCC(=O)N2CCCC(=O)NCCc1ccccc1 ?
666

What does the record list as RP-LC retention time for O=C(Nc1nc2c(s1)CCCC2C(=O)N1CCOCC1)c1ccc(Cl)cc1 (stereo not given) ?
759

What does the record list as RP-LC retention time for CN1C(=O)[C@H]2CN(Cc3ccc(Cl)c(F)c3)C[C@H]2C1=O ?
632

What does the record list as RP-LC retention time for O=C(C1CCCCC1)N1CCN(CC(F)(F)F)CC1 ?
796

What does the record list as RP-LC retention time for CCCCn1c(=O)c2ccccc2n(Cc2nc(-c3ccc(OC)cc3)no2)c1=O ?
1160

What does the record list as RP-LC retention time for CCN1C(=O)c2cccnc2Sc2cc(NC(=O)c3ccc(C)c(C)c3)ccc21 ?
918

What does the record list as RP-LC retention time for COc1ccc(N2C=C(C#N)S(=O)(=O)c3c(F)cccc32)c(OC)c1 ?
893

What does the record list as RP-LC retention time for CNC(=O)c1cnn(-c2ccc(-c3nc(C(C)C)no3)cn2)c1C ?
780

What does the record list as RP-LC retention time for Cc1nc(-c2nnc(NC(=O)C3CCN(S(C)(=O)=O)CC3)o2)cs1 ?
572

What does the record list as RP-LC retention time for CCc1cccc(NC(=O)Cn2nc3cc(C)nc(N4CCCC4)n3c2=O)c1 ?
798

What does the record list as RP-LC retention time for CSc1ccc(CNC(=O)C2CCCN(c3cc(=O)n(C)c(=O)n3C)C2)cc1 (stereo not given) ?
704

What does the record list as RP-LC retention time for Cc1nn(Cc2ccc(C(=O)NC3CC3)cc2)c(C)c1S(=O)(=O)N1CCCCC1 ?
765

###

# Protocol description: gradient 5% acetonitrile 3 min, to 50% in 2 min, to 85% in 15 min, held 3 min, 100 µL/min
# Stated conditions: column: Zorbax Extend-C18 2.1 x 50 mm; eluents: water / acetonitrile, 0.1% formic acid
Assay readout: RP-LC retention time

What does the record list as RP-LC retention time for COc1ccc(-c2nnc(N3CCC(C(=O)N4CCN(C)CC4)CC3)o2)cc1 ?
582 s

What does the record list as RP-LC retention time for COc1ccc(-c2nc(Nc3cnc(SC)nc3)sc2C)cc1 ?
1050 s

What does the record list as RP-LC retention time for CC1CCCC(C)N1CCCNC(=O)c1cc2sccc2n1Cc1ccc(Cl)cc1 (stereo not given) ?
783 s

What does the record list as RP-LC retention time for CCn1c(CCC(=O)NCc2ccc(Cl)cc2)nc2ccccc2c1=O ?
812 s

What does the record list as RP-LC retention time for COC(=O)c1cccc(NS(=O)(=O)c2cn(CC(C)C)c3ncccc23)c1 ?
913 s

What does the record list as RP-LC retention time for Cc1ccc(S(=O)(=O)N2CC(=O)N(c3ccc(F)cc3)C(C)(C(=O)NCc3ccccc3)C2)cc1 (stereo not given) ?
968 s

What does the record list as RP-LC retention time for O=[N+]([O-])/C=C/c1cc2ccccc2[nH]1 ?
718 s

What does the record list as RP-LC retention time for COc1cccc(NC(=O)N2CCC3(C2)C(=O)N(C)c2ccc(OC)cc23)c1 (stereo not given) ?
746 s

What does the record list as RP-LC retention time for Cc1cc(F)ccc1NS(=O)(=O)c1cc(-c2[nH]ncc2C(=O)N2CCOCC2)oc1C ?
678 s

What does the record list as RP-LC retention time for FC(F)(F)Oc1ccc(CN2CCN(c3cnn4cnnc4c3)CC2)cc1 ?
611 s
